So I've got a bunch of compounds here, and I need their % Activation (Edg-1 receptor activation in percent of the activation by 10 μM S1P) values.
biological target: human Edg-1 receptor (Homo sapiens); construct: expressed in transfected cells; membrane preparation; assay: GTP-γ-S assay using human Edg-1 receptors (scintillation proximity assay, membrane preparation from CHO Flp-In cell line); type: biochemical; settings: example compound at 10 μM; relative to 10 μM S1P; GTP-γ-S SPA, human Edg-1 membranes
The number alone won't do; follow it with the unit.

Short answer for CCOc1nc(Cc2ccc(Cl)cc2)nc2oc(-c3cc(C)c(OCC(O)CNCCCNS(C)(=O)=O)c(C)c3)nc12 (stereo not shown) [Example 280] : % Activation (Edg-1 receptor activation in percent of the activation by 10 μM S1P) was 53%

Short answer for CCOc1nc(Cc2ccc(Cl)cc2)nc2oc(-c3ccc(OC)c(F)c3)nc12 [Example 277] : % Activation (Edg-1 receptor activation in percent of the activation by 10 μM S1P) was 49%

Short answer for CCCOc1nc(Cc2ccc(Cl)cc2)nc2oc(-c3cc(C)cc(C)c3)nc12 [Example 149] : % Activation (Edg-1 receptor activation in percent of the activation by 10 μM S1P) was 102%

Short answer for CCCOc1nc(Cc2ccc(Cl)cc2)nc2oc(-c3ccncc3F)nc12 [Example 150] : % Activation (Edg-1 receptor activation in percent of the activation by 10 μM S1P) was 143%

Short answer for CCCOc1nc(Cn2cnc(C)n2)nc2oc(-c3cccc(F)c3)nc12 [Example 154] : % Activation (Edg-1 receptor activation in percent of the activation by 10 μM S1P) was 88%

Short answer for CCCOc1nc(Cc2ccc(Cl)cc2)nc2oc(-c3cc(C)c(OCCCN[C@@H](Cc4ccccc4)C(=O)O)c(C)c3)nc12 [Example 289] : % Activation (Edg-1 receptor activation in percent of the activation by 10 μM S1P) was 80%

Short answer for CCCOc1nc(CN2CCC(F)(F)CC2)nc2oc(-c3ccc(F)c(F)c3)nc12 [Example 68] : % Activation (Edg-1 receptor activation in percent of the activation by 10 μM S1P) was 120%

Short answer for CCCOc1nc(Cc2ccc(Cl)cc2)nc2oc(-c3ccc(F)c(F)c3)nc12 [Example 132] : % Activation (Edg-1 receptor activation in percent of the activation by 10 μM S1P) was 71%

Short answer for CCCOc1nc(CN2CCC(F)(F)CC2)nc2oc(-c3cncc(F)c3)nc12 [Example 40] : % Activation (Edg-1 receptor activation in percent of the activation by 10 μM S1P) was 123%

Short answer for CCCOc1nc(Cc2ccc(Cl)cc2)nc2oc(-c3cccnc3)nc12 [Example 122] : % Activation (Edg-1 receptor activation in percent of the activation by 10 μM S1P) was 103%

Short answer for CCCOc1nc(CN2CCC(F)(F)CC2)nc2oc(-c3cc(F)c(F)cc3Cl)nc12 [Example 87] : % Activation (Edg-1 receptor activation in percent of the activation by 10 μM S1P) was 92%

Short answer for CCCOc1nc(Cc2ccc(Cl)cc2)nc2oc(-c3cc(C)ccc3F)nc12 [Example 167] : % Activation (Edg-1 receptor activation in percent of the activation by 10 μM S1P) was 102%

Short answer for CCCOc1nc(Cc2ccc(Cl)cc2)nc2oc(-c3cc(C)c(OCC(O)CN4CCOCC4)c(C)c3)nc12 (stereo not shown) [Example 193] : % Activation (Edg-1 receptor activation in percent of the activation by 10 μM S1P) was 114%

Short answer for Cc1cccc(-c2nc3c(OC4CCCC4)nc(Cc4ccc(Cl)cc4)nc3o2)c1 [Example 107] : % Activation (Edg-1 receptor activation in percent of the activation by 10 μM S1P) was 73%

Short answer for CCOc1nc(Cc2ccc(Cl)cc2)nc2oc(-c3cc(C)c(OCCCS(=O)(=O)c4nnc(C(C)(C)C)[nH]4)c(C)c3)nc12 [Example 278] : % Activation (Edg-1 receptor activation in percent of the activation by 10 μM S1P) was 105%

Short answer for CCOc1nc(Cc2ccc(Cl)cc2)nc2oc(-c3cc(C)c(OCCCS(=O)(=O)c4nnc(C(C)C)[nH]4)c(C)c3)nc12 [Example 275] : % Activation (Edg-1 receptor activation in percent of the activation by 10 μM S1P) was 88%

---

So I've got a bunch of compounds here, and I need their % Activation (Edg-1 receptor activation in percent of the activation by 10 μM S1P) values.
Target: human Edg-1 receptor (Homo sapiens, UniProt P21453)
Construct: expressed in transfected cells; membrane preparation
Sequence (P21453 whole entry): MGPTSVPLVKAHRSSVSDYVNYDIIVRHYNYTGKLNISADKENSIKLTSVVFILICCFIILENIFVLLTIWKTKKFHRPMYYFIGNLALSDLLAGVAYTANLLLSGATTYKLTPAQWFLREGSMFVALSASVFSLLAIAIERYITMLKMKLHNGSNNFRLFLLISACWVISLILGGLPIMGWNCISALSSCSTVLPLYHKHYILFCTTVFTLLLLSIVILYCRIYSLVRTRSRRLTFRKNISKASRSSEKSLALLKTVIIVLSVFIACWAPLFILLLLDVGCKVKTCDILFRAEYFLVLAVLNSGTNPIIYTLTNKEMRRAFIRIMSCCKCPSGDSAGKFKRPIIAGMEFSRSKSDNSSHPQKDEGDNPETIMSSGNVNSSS
Experiment: GTP-γ-S assay using human Edg-1 receptors (scintillation proximity assay, membrane preparation from CHO Flp-In cell line)
Type: biochemical
Settings: example compound at 10 μM; relative to 10 μM S1P; GTP-γ-S SPA, human Edg-1 membranes
Excerpt: Determination of the Pharmacological Activity A) GTP-γ-S Assay Using Human Edg-1 Receptors In order to determine the Edg-1 receptor activation by the compounds of the invention, a GTP-γ-S (guanosine 5′-[γ-thio]triphosphate) assay for G-protein coupled receptor binding based on the scintillation proximity assay principle was used, employing a cell membrane preparation from a CHO Flp-In cell line which constitutively overexpresses the human Edg-1 receptor. […]
The number alone won't do; follow it with the unit.

Short answer for CCCOc1nc(Cc2ccc(Cl)cc2)nc2oc(-c3cc(C(F)(F)F)cc(C(F)(F)F)c3)nc12 [Example 138] : % Activation (Edg-1 receptor activation in percent of the activation by 10 μM S1P) was 52%

Short answer for CCCOc1nc(CC2CCOCC2)nc2oc(-c3cccc(F)c3)nc12 [Example 160] : % Activation (Edg-1 receptor activation in percent of the activation by 10 μM S1P) was 69%

Short answer for CCOc1nc(Cc2ccc(Cl)cc2)nc2oc(-c3cc(C)c(OCC(=O)NCCN(C)C)c(C)c3)nc12 [Example 249] : % Activation (Edg-1 receptor activation in percent of the activation by 10 μM S1P) was 104%

Short answer for CCOc1nc(Cc2ccc(Cl)cc2)nc2oc(-c3cc(C)c(OCC(O)CNC(=O)C4(O)CC4)c(C)c3)nc12 (centres unmarked) [Example 260] : % Activation (Edg-1 receptor activation in percent of the activation by 10 μM S1P) was 95%

Short answer for CCCOc1nc(CN2CCOCC2)nc2oc(-c3cccc(Cl)c3)nc12 [Example 27] : % Activation (Edg-1 receptor activation in percent of the activation by 10 μM S1P) was 124%

Short answer for CCCOc1nc(Cc2cc(OC)cc(OC)c2)nc2oc(-c3cccc(C)c3)nc12 [Example 166] : % Activation (Edg-1 receptor activation in percent of the activation by 10 μM S1P) was 42%

Short answer for CCOc1nc(Cc2ccc(Cl)cc2)nc2oc(-c3cc(C)c(OCC(O)CS(=O)(=O)c4nnc(C5CC5)[nH]4)c(C)c3)nc12 (centres unmarked) [Example 300] : % Activation (Edg-1 receptor activation in percent of the activation by 10 μM S1P) was 89%

Short answer for CCCOc1nc(CN2CCCOCC2)nc2oc(-c3ccc(Br)o3)nc12 [Example 99] : % Activation (Edg-1 receptor activation in percent of the activation by 10 μM S1P) was 117%

---

So I've got a bunch of compounds here, and I need their % Activation (Edg-1 receptor activation in percent of the activation by 10 μM S1P) values.
target: human Edg-1 receptor (Homo sapiens, UniProt P21453); construct: expressed in transfected cells; membrane preparation; test: GTP-γ-S assay using human Edg-1 receptors (scintillation proximity assay, membrane preparation from CHO Flp-In cell line); format: biochemical; details: example compound at 10 μM; relative to 10 μM S1P; GTP-γ-S SPA, human Edg-1 membranes
The number alone won't do; follow it with the unit.

Measured % Activation (Edg-1 receptor activation in percent of the activation by 10 μM S1P) (human Edg-1 receptor (Homo sapiens, UniProt P21453)), entry CCCOc1nc(CN2CC[S+]([O-])CC2)nc2oc(-c3cccc(F)c3)nc12 : 35%

Measured % Activation (Edg-1 receptor activation in percent of the activation by 10 μM S1P) (human Edg-1 receptor (Homo sapiens, UniProt P21453)), entry CCOc1nc(Cc2ccc(Cl)cc2)nc2oc(-c3cc(C)c(OCC(O)CN)c(C)c3)nc12 (stereo not shown) : 138%

Measured % Activation (Edg-1 receptor activation in percent of the activation by 10 μM S1P) (human Edg-1 receptor (Homo sapiens, UniProt P21453)), entry CCCOc1nc(CN2C(=O)CN(C)C2=O)nc2oc(-c3cccc(F)c3)nc12 : 69%

Measured % Activation (Edg-1 receptor activation in percent of the activation by 10 μM S1P) (human Edg-1 receptor (Homo sapiens, UniProt P21453)), entry CCOc1nc(Cc2ccc(Cl)cc2)nc2oc(-c3cccc(OCC(=O)NCC(=O)O)c3)nc12 : 72%

Measured % Activation (Edg-1 receptor activation in percent of the activation by 10 μM S1P) (human Edg-1 receptor (Homo sapiens, UniProt P21453)), entry CCCOc1nc(Cc2ccc(Cl)cc2)nc2oc(-c3cccc(C)c3F)nc12 : 115%

Measured % Activation (Edg-1 receptor activation in percent of the activation by 10 μM S1P) (human Edg-1 receptor (Homo sapiens, UniProt P21453)), entry CCCOc1nc(Cc2ccc(Cl)cc2)nc2oc(-c3cc(C)c(OCC(O)CNC(=O)CC(C)C)c(C)c3)nc12 (stereo not shown) : 69%

Measured % Activation (Edg-1 receptor activation in percent of the activation by 10 μM S1P) (human Edg-1 receptor (Homo sapiens, UniProt P21453)), entry CCCOc1nc(CN2CCOCC2)nc2oc(-c3ccnc(Cl)c3)nc12 : 116%

Measured % Activation (Edg-1 receptor activation in percent of the activation by 10 μM S1P) (human Edg-1 receptor (Homo sapiens, UniProt P21453)), entry Cc1cccc(-c2nc3c(OCCF)nc(Cc4ccc(Cl)cc4)nc3o2)c1 : 103%

Measured % Activation (Edg-1 receptor activation in percent of the activation by 10 μM S1P) (human Edg-1 receptor (Homo sapiens, UniProt P21453)), entry CCOc1nc(Cc2ccc(Cl)cc2)nc2oc(-c3cc(C)c(OCCCNCCc4nc(O)n[nH]4)c(C)c3)nc12 : 146%

Measured % Activation (Edg-1 receptor activation in percent of the activation by 10 μM S1P) (human Edg-1 receptor (Homo sapiens, UniProt P21453)), entry CCCOc1nc(Cc2ccc(Cl)cc2)nc2oc(-c3ccc(OCC(O)CNCc4ccccc4)c(Cl)c3)nc12 (stereo not shown) : 94%

Measured % Activation (Edg-1 receptor activation in percent of the activation by 10 μM S1P) (human Edg-1 receptor (Homo sapiens, UniProt P21453)), entry CCOc1nc(Cc2ccc(Cl)cc2)nc2oc(-c3cc(C)c(OCC(O)CNC4CCC(C)CC4)c(C)c3)nc12 (stereo not shown) : 132%

Measured % Activation (Edg-1 receptor activation in percent of the activation by 10 μM S1P) (human Edg-1 receptor (Homo sapiens, UniProt P21453)), entry Cc1cc(-c2nc3c(OC(C)C)nc(Cc4ccc(Cl)cc4)nc3o2)cc(C)c1OCC(O)CN1CCOCC1 (stereo not shown) : 98%

Measured % Activation (Edg-1 receptor activation in percent of the activation by 10 μM S1P) (human Edg-1 receptor (Homo sapiens, UniProt P21453)), entry CCCOc1nc(CN2CCOCC2)nc2oc(-c3cccc(C(F)(F)F)c3)nc12 : 99%

Measured % Activation (Edg-1 receptor activation in percent of the activation by 10 μM S1P) (human Edg-1 receptor (Homo sapiens, UniProt P21453)), entry CCOc1nc(Cc2ccc(Cl)cc2)nc2oc(-c3cc(C)c(O)c(C)c3)nc12 : 98%

Measured % Activation (Edg-1 receptor activation in percent of the activation by 10 μM S1P) (human Edg-1 receptor (Homo sapiens, UniProt P21453)), entry CCCOc1nc(CN2CCCOCC2)nc2oc(-c3ccc(Cl)c(F)c3)nc12 : 96%

Measured % Activation (Edg-1 receptor activation in percent of the activation by 10 μM S1P) (human Edg-1 receptor (Homo sapiens, UniProt P21453)), entry CCCOc1nc(Cc2ccc(Cl)cc2)nc2oc(-c3cc(C)c(OCC(O)CNC4CCN(C)CC4)c(C)c3)nc12 (stereo not shown) : 143%
